Exercise: state measured Percent Effect for each of the compounds provided.
Test system: Mycobacterium tuberculosis
Assay: Cornell M. t heat shock assay; further: in the data most compounds retested in dose-response had high values
Assay type: functional, organism-based
Set-up: dose or concentration left out as unconfirmed
The campaign covered roughly 69,000 compounds. About 950 (1.4%) showed an effect of 50% or more. The sample as a whole holds a higher share of strong results than the screen did.
Numbers only, in %.

Solved entries:
[
  {
    "compound": "CCCS(=O)(=O)NCCn1ccc(-c2cccs2)n1",
    "target of assay": "Mycobacterium tuberculosis",
    "units label": "%",
    "result number": -4.478
  },
  {
    "compound": "COc1ccc(CNCc2ccnc(N3CCCC3)c2)c(OC)c1.Cl",
    "target of assay": "Mycobacterium tuberculosis",
    "units label": "%",
    "result number": 15.53
  },
  {
    "compound": "O=C(O)C(F)(F)F.O=S(=O)(C1CC1)N1CCCn2cnc(COc3cccnc3)c2C1",
    "target of assay": "Mycobacterium tuberculosis",
    "units label": "%",
    "result number": 9.967
  },
  {
    "compound": "COc1ccccc1Cc1cncc(N2CC(C(=O)O)C2)n1.Cl",
    "target of assay": "Mycobacterium tuberculosis",
    "units label": "%",
    "result number": 2.257
  },
  {
    "compound": "NC1(c2nc(-c3ccccc3)cc(=O)[nH]2)CCCC1",
    "target of assay": "Mycobacterium tuberculosis",
    "units label": "%",
    "result number": -2.897
  }
]

Let us move to another entry and its Percent Effect.
Find Percent Effect for COC1COC2(CCN(Cc3ccc(Cl)cc3)CC2)C1.O=C(O)C(F)(F)F (stereo unspecified) on Mycobacterium tuberculosis and write it down. -23.85
